- Tested Target: UniProt Q02763
- Sequence (Q02763 whole entry): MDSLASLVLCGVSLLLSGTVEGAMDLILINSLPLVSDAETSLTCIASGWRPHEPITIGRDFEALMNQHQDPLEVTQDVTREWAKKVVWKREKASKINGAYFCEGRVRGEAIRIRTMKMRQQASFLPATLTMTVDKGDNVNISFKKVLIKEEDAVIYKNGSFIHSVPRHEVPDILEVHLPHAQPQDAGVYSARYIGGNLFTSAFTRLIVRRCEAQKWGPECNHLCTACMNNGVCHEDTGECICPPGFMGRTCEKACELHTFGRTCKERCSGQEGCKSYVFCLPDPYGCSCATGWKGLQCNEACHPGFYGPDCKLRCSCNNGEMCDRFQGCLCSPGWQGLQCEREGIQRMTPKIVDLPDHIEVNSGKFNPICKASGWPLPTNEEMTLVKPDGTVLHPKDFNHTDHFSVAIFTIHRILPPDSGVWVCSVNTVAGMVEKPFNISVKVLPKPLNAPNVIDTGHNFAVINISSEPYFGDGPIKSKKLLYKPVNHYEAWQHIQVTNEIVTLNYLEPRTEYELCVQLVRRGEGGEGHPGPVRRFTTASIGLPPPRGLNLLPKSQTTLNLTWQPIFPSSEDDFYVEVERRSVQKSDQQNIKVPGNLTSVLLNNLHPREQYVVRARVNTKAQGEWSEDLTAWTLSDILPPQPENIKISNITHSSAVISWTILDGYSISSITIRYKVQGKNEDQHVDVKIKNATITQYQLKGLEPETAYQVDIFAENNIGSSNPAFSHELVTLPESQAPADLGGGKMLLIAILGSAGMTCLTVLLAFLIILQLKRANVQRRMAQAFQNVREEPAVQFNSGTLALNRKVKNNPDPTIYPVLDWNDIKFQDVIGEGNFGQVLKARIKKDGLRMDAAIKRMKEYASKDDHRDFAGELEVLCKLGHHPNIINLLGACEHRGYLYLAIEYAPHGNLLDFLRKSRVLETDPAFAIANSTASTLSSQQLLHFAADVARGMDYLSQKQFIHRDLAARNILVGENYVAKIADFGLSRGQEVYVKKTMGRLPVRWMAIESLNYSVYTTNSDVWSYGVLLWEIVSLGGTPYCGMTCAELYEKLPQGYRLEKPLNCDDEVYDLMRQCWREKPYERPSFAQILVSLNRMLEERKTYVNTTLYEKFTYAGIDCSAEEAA
- Test Protocol: Residual activity of human Tie2 at 1 uM relative to control
Reported residual activity is given for each of the following molecules.
Property Label: residual activity (%)

- CN(C)c1nc2ccc1CCCn1cc(c3ccccc31)C1=C(C(=O)NC1=O)c1cn(c3ccccc13)CC2: 110
- CN(C)c1cc2cc(n1)CCCn1cc(c3ccccc31)C1=C(C(=O)NC1=O)c1cn(c3ccccc13)CCC2: 109
- O=C1NC(=O)C2=C1c1cn(c3ccccc13)CCCc1ccc(c(N3CCCC3)n1)CCCn1cc2c2ccccc21: 107
- O=C1NC(=O)C2=C1c1cn(c3ccccc13)CCCc1cc(nc(N3CCCC3)c1)CCCn1cc2c2ccccc21: 96
